biological target: MERTK (UniProt Q12866); test: phosphorylation enrichment, bacterial display (enrichment ratio); higher = better substrate or ligand; peptides without Tyr show the background;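 also: 11-residue human phosphosite peptides and single-mutation variants displayed on the E. coli surface, counted by deep sequencing, each peptide's frequency after selection divided by its frequency in the unselected input library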;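 also: frequency after pTyr selection over input frequency; kinase dosed for 20-30% of maximal phosphorylation in three min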
Sequence (Q12866 whole entry, looked up): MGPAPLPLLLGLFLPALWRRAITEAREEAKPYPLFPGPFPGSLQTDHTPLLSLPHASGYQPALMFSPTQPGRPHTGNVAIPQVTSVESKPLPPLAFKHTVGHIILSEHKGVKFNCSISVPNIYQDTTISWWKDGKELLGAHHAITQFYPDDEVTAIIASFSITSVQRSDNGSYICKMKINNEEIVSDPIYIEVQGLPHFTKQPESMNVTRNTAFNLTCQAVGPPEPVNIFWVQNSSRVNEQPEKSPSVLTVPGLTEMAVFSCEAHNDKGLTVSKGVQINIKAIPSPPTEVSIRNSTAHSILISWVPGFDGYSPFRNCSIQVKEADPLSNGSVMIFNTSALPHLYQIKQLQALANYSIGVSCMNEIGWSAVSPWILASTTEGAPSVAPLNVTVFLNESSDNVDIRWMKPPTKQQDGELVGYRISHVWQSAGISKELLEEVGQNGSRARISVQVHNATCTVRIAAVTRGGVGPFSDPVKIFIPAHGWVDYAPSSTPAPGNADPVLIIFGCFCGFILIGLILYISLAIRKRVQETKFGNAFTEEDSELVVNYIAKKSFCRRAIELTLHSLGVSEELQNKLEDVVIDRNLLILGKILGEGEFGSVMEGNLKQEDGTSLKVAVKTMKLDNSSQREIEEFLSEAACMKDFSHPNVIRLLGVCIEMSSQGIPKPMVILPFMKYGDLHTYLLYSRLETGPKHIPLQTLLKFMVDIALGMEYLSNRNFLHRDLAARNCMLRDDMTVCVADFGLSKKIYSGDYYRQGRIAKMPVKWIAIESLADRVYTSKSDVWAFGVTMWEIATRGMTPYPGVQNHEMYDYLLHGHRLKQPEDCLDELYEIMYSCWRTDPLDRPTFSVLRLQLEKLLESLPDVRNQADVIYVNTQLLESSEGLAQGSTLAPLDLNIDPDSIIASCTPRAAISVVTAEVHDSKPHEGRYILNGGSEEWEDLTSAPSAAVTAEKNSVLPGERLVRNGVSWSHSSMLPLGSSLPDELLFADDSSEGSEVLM
MEASURED ENDPOINT: phosphorylation enrichment
Numbers only.

# CONSTRUCT SEQUENCE, phosphorylation enrichment
measured = [
    ("VIECSYTSADG [DHCR7_Y382]", 0.423),
]

Quick batch: phosphorylation enrichment for everything below.
1. LWQTIYNLEAE [TNNT2_Y251_S249T]
2. TLQWMYGCDVG [HLA-B_Y123_S121W]

Reply:
0.735
0.38

Memo: HLVLNYGVCFC [JAK2_Y613_V617F] , reported phosphorylation enrichment: 0.575
